Study the reported pIC50 values for Dihydrofolate reductase (Pneumocystis carinii, UniProt P16184) given below; they originate from different publications.
pIC50: −log10 of the molar value.
property_name: pIC50

Nc1nc(N)c2cc(NCc3ccccc3)ccc2n1: 5.06
Nc1nc(N)c2cc3c(nc2n1)CCN(Cc1ccc(Cl)cc1Cl)C3: 5.40
COc1cc(NCc2ccc3nc(N)nc(N)c3n2)cc(OC)c1OC: 5.59
Nc1nc(N)c2cc(CNc3ccccc3)ccc2n1: 6.01
Nc1nc(N)c2nc(CSc3cccc(Cl)c3)cnc2n1: 4.37
Cc1c(CNc2ccc(Cl)cc2)cnc2nc(N)nc(N)c12: 6.96
COc1cccc(SCc2cnc3nc(N)nc(N)c3c2C)c1: 6.47
COc1cc(NCc2cnc3nc(N)nc(N)c3c2C)cc(C(F)(F)F)c1: 7.70
COc1ccc(OC)c(NCc2ccc3nc(N)nc(N)c3n2)c1: 5.85
CN(Cc1ccccc1)c1cnc2nc(N)nc(N)c2c1: 7.17
CCc1nc(N)nc(N)c1-c1ccc(Cl)c(/N=N/N2CCN(C)CC2)c1: 5.07
Nc1nc(N)c2c(CSc3ccc4ccccc4c3)c[nH]c2n1: 3.03
COc1ccccc1NCc1cnc2nc(N)nc(N)c2c1C: 6.93

* * *

# literature pull: Dihydrofolate reductase (Pneumocystis carinii) IC50
property_name: IC50 (nM)

Cc1cn([C@@H]2O[C@H](COP(=O)(O)O)[C@@H](O)[C@H]2O)c(=O)[nH]c1=O: 15000
CN(c1ccccc1)c1ccc2nc(N)nc(N)c2n1: 99.5
Nc1nc(N)c2nc(Nc3ccccc3)ccc2n1: 8300
COc1ccc(-c2nc3c(N)nc(N)nc3[nH]2)cc1OC: 12000
COc1ccc(CN(C)c2ccc3nc(N)nc(N)c3c2)c(OC)c1: 100
COc1ccc(Nc2ccc3nc(N)nc(N)c3n2)cc1: 90400
COc1cc(OC)c(OC)cc1CNc1cnc2nc(N)nc(N)c2c1: 5500
CN(CCc1ccccc1)c1cnc2nc(N)nc(N)c2c1: 1800
COc1ccc(CNc2cnc3nc(N)nc(N)c3c2)c(OC)c1OC: 15300
COc1ccc(SCc2cnc3nc(N)nc(N)c3n2)cc1OC: 58200
CCc1nc(N)nc(N)c1-c1ccc(Cl)c(N(C)Cc2ccccc2)c1: 1070
COc1cc(N(C)c2ccc3nc(N)nc(N)c3n2)cc(OC)c1OC: 21
Nc1nc(N)c2cc(COC(=O)c3ccccc3)ccc2n1: 600
COc1cccc2c1CCN2Cc1cnc2nc(N)nc(N)c2c1C: 290
COc1ccc(OC)c(C(=O)OCc2ccc3nc(N)nc(N)c3c2)c1: 2400
COc1ccc(OC)c(CCCNc2ccc3nc(N)nc(N)c3c2Cl)c1: 26000
COc1cc(OC)cc(C(=O)OCc2ccc3nc(N)nc(N)c3c2)c1: 460
COc1ccc(Nc2ccc3nc(N)nc(N)c3n2)cc1OC: 40400
CCCN(C)/N=N/c1cc(-c2c(N)nc(N)nc2CC)ccc1Cl: 10200
COc1cc(CCCC2CCc3nc(N)nc(N)c32)cc(OC)c1OC (configuration not stated): 1300
Nc1nc(N)c2c(n1)CCC(Cc1ccc(OC(F)(F)F)cc1)C2 (configuration not stated): 580
COc1cccc(CC2CCc3nc(N)nc(N)c3C2)c1 (configuration not stated): 270
COc1cc(CN2CCc3nc(N)nc(N)c3C2)cc(OC)c1OC: 6900
CCOc1ccc(OCC)c(NCc2c[nH]c3nc(N)nc(N)c23)c1: 21000
Cc1c(CN(C)c2ccccc2Cl)cnc2nc(N)nc(N)c12: 84
Nc1nc(N)c2cc(CNc3cccc4ccccc34)ccc2n1: 210
Cc1c(CN(C)c2ccc(Br)cc2)cnc2nc(N)nc(N)c12: 37
Cc1c(CNc2ccc(Br)cc2)cnc2nc(N)nc(N)c12: 80.8
Nc1nc(N)c2c(CNc3ccc(C(=O)NC(CCC(=O)O)C(=O)O)cc3)c[nH]c2n1 (configuration not stated): 38
COc1cc(Cc2cnc(N)nc2N)cc(C#CCCC(=O)O)c1OC: 1000
Cc1cccc(C(C)C)c1Sc1oc2nc(N)nc(N)c2c1C: 36500
COc1ccc(CNc2ccc3nc(N)nc(N)c3c2)c(OC)c1OC: 4900
Nc1nc(N)c2nc(CSc3ccccc3)cnc2n1: 9500
Cc1c(CSc2cccc(Cl)c2)cnc2nc(N)nc(N)c12: 68
COc1cc(C(=O)OCc2ccc3nc(N)nc(N)c3c2)cc(OC)c1OC: 560
COc1ccc(SCc2cnc3nc(N)nc(N)c3c2C)cc1: 560
Nc1nc(N)c2c(n1)CCC(Cc1ccccc1)C2 (configuration not stated): 290
COc1ccc(C(F)(F)F)cc1NCc1cnc2nc(N)nc(N)c2c1C: 44
Cc1c(CNc2ccccc2)cnc2nc(N)nc(N)c12: 80
COc1ccc(CC2CCc3nc(N)nc(N)c3C2)cc1 (configuration not stated): 440
COc1ccc(CN(C)c2ccc3nc(N)nc(N)c3c2)c(OC)c1OC: 52

* * *

pIC50: −log10 of the molar value.
Kindly find below pIC50 information for Dihydrofolate reductase (Pneumocystis carinii, UniProt P16184) taken from the literature.
property_name: pIC50

COc1cc(N(C)Cc2ccc3nc(N)nc(N)c3n2)cc(OC)c1OC: 6.89
COc1ccc(C(=O)OCc2ccc3nc(N)nc(N)c3c2)cc1OC: 6.29
CN(Cc1coc2nc(N)nc(N)c12)c1ccc2ccccc2c1: 4.83
COc1cc(CC2CCc3nc(N)nc(N)c3C2)cc(OC)c1OC (stereo unspecified): 7.04
N=C(N)c1ccc(N2CCN(c3ccc(-c4nc5ccccc5[nH]4)cc3)CC2)cc1: 6.77
CCc1nc(N)nc(N)c1-c1ccc(Cl)c(/N=N/N(C)Cc2ccccc2)c1: 6.24
COc1ccc(N(C)Cc2cnc3nc(N)nc(N)c3c2C)cc1OC: 7.54
COc1ccc(SCc2cnc3nc(N)nc(N)c3n2)cc1: 4.76
Nc1nc(N)c2nc(C3c4ccccc4-c4ccccc43)[nH]c2n1: 4.46

* * *

Target chain: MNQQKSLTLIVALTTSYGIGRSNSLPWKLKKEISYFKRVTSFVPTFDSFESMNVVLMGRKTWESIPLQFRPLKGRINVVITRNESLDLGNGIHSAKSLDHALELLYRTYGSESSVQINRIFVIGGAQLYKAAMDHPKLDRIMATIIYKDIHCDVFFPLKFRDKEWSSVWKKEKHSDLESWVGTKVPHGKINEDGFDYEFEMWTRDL
pIC50: −log10 of the molar value.
Literature compilation of pIC50 measurements on the protein given by its sequence.
property_name: pIC50

COc1cccc(C)c1NCc1cnc2nc(N)nc(N)c2n1: 4.80
Cc1ccc(C)c(NCc2cnc3nc(N)nc(N)c3c2C)c1: 7.52
CN(Cc1ccc2nc(N)nc(N)c2c1)c1ccccc1: 7.02
COc1ccc2c(c1)CCN2Cc1cnc2nc(N)nc(N)c2c1C: 6.60
COc1ccc(C(=O)OCc2ccc3nc(N)nc(N)c3c2)c(OC)c1OC: 5.85
Nc1nc(N)c2nc(Nc3ccc4ccccc4c3)ccc2n1: 4.82
Nc1nc(N)c2c(CSc3cccc4ccccc34)c[nH]c2n1: 4.97
COc1ccc(CNc2cnc3nc(N)nc(N)c3c2)c2ccccc12: 5.09
COc1cc(CN(C)c2cnc3nc(N)nc(N)c3c2)cc(OC)c1OC: 7.21
Nc1nc(N)c2c(CNc3cc(Cl)c(-n4cccc4)c(Cl)c3)c(Br)sc2n1: 5.12
Cc1ccccc1CC1CCc2nc(N)nc(N)c2C1 (stereo not given): 6.60
Nc1nc(N)c2c(n1)CCC(CC1CCCO1)C2 (stereo not given): 6.06
CCN(Cc1cnc2nc(N)nc(N)c2c1C)c1cc(OC)c(OC)c(OC)c1: 7.30
COc1cc(NCc2ccc3nc(N)nc(N)c3c2Cl)cc(OC)c1OC: 7.48
COc1ccc(OC)c(CN(C)c2ccc3nc(N)nc(N)c3c2)c1: 7.06
COc1cc(OC)c(CNc2ccc3nc(N)nc(N)c3c2)c(OC)c1: 3.94
COc1cccc(C)c1NCc1cnc2nc(N)nc(N)c2c1C: 6.00
Nc1nc(N)c2cc(CNc3ccc(Cl)cc3)ccc2n1: 6.22
CN(Cc1ccc2nc(N)nc(N)c2n1)c1cccc(Cl)c1: 5.68
Nc1nc(N)c2[nH]c(-c3ccncc3)nc2n1: 4.74
COc1cc(CCC2CNc3nc(N)nc(N)c3C2)cc(OC)c1OC (stereo not given): 4.21
COc1ccc(/C=C/c2cnc3nc(N)nc(N)c3c2)cc1OC: 5.59
COc1ccccc1CC1CCc2nc(N)nc(N)c2C1 (stereo not given): 6.35
COc1cc(Cc2cnc(N)nc2N)cc(OC)c1Br: 7.51
COc1ccc(NCc2cnc3nc(N)nc(N)c3c2C)cc1OC: 7.29
COc1ccc(CCc2cnc3nc(N)nc(N)c3c2)cc1OC: 5.85
CCOc1ccc(OCC)c(N(C)Cc2cnc3nc(N)nc(N)c3c2C)c1: 5.51
Cc1cccc(SCc2cnc3nc(N)nc(N)c3c2C)c1: 6.77
COc1ccccc1S(=O)(=O)c1ccc2nc(N)nc(N)c2n1: 5.49
COc1cc(NCc2cnc3nc(N)nc(N)c3n2)cc(OC)c1OC: 5.15
COc1cc(CN(C)c2ccc3nc(N)nc(N)c3c2Cl)cc(OC)c1OC: 6.77
COc1ccc(NCc2cnc3nc(N)nc(N)c3c2C)c(C)c1: 6.77
COc1cc(C(C)Nc2cnc3nc(N)nc(N)c3c2)cc(OC)c1OC (stereo not given): 5.04
